For each record, write down the corresponding IC50.
Biological target: NaV 1.8 channel (Homo sapiens)
Assay: Activity against NaV 1.8 channel (optical membrane potential assay)
Method: Compounds of the invention are useful as antagonists of voltage-gated sodium ion channels. Antagonist properties of test compounds were assessed as follows. Cells expressing the NaV of interest were placed into microtiter plates. […] The cells were stimulated with either a chemical or electrical means to evoke a NaV dependent membrane potential change from unblocked channels, which was detected and measured with trans-membrane potential-sensitive dyes. […]

For the molecule shown here, CCC(C)(O)C(=O)N1CCN(c2nc(-c3ccccc3O)nc3cc(C)ccc23)CC1 (stereo not shown) [Example 165] , give the reported IC50.
2 to 10 µM

For the molecule shown here, Cc1ccc2c(N3CCC[C@H](NC(=O)O[C@@H]4CCOC4)C3)nc(-c3ccccc3O)nc2c1 [Example 203] , give the reported IC50.
> 10 µM

For the molecule shown here, Cc1ccc2c(N3CC(CNC(=O)OC(C)C)C3)nc(-c3ccccc3O)nc2c1 [Example 420] , give the reported IC50.
< 2 µM

For the molecule shown here, O=C(CC1CCOCC1)N1CCN(c2nc(-c3ccccc3O)nc3ccc(F)cc23)CC1 [Example 128] , give the reported IC50.
2 to 10 µM

----------
For each record, write down the corresponding pIC50.
Biological target: NaV 1.8 channel (Homo sapiens, UniProt Q9Y5Y9)
Sequence (Q9Y5Y9 whole entry): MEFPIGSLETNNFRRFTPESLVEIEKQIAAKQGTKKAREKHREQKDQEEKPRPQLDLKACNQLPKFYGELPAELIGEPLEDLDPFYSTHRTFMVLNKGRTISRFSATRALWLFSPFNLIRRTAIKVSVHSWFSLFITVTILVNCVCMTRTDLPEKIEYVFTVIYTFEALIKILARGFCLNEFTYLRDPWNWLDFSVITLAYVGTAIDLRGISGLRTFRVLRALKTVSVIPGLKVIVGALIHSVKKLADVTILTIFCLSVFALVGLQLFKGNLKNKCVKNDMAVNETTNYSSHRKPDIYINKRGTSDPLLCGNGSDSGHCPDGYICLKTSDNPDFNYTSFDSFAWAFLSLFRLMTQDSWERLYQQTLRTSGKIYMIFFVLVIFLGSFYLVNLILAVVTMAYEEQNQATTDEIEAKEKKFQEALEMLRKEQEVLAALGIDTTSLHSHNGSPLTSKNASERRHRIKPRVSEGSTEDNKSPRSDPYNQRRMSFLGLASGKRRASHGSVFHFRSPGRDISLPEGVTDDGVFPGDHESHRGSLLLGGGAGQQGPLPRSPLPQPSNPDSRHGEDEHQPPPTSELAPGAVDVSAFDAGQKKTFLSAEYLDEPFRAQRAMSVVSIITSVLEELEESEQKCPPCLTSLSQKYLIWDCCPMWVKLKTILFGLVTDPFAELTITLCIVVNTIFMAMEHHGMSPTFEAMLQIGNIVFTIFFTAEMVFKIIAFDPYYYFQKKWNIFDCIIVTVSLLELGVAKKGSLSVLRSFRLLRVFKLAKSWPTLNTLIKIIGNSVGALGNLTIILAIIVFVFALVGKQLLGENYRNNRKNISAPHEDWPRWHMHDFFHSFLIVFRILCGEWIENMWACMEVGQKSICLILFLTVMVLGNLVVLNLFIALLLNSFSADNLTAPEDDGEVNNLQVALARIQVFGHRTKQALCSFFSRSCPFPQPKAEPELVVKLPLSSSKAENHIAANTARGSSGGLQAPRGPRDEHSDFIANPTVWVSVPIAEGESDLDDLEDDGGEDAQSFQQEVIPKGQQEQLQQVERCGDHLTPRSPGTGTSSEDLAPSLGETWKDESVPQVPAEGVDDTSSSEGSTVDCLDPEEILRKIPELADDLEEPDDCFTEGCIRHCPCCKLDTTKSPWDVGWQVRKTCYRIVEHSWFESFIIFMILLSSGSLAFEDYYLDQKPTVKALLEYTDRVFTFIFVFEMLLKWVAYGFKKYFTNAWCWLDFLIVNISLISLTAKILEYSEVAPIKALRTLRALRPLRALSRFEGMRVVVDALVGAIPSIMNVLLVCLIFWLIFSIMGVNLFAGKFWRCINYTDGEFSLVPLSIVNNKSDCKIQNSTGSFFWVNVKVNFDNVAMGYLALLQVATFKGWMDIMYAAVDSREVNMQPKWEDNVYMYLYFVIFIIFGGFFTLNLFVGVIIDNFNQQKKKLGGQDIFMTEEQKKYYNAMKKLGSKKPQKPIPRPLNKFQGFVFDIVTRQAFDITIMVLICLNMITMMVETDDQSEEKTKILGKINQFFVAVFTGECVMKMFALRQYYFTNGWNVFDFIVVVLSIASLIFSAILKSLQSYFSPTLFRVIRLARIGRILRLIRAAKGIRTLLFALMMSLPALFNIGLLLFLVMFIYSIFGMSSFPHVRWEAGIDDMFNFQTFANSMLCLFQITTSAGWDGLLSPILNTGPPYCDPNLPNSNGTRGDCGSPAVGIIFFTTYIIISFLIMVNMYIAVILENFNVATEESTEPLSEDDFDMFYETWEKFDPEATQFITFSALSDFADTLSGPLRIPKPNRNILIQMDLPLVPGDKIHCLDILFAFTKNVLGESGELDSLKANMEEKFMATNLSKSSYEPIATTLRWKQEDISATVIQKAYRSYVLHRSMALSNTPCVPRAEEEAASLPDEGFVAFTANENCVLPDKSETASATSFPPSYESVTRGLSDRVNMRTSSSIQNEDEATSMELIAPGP
Experiment: Activity against NaV 1.8 channel (optical membrane potential assay)
pIC50: −log10 of the molar value.

For the molecule shown here, "Cc1ccc2c(N3CCC[C@@H](CNC(=O)O[C@H]4CO[C@@H]5OCC[C@@H]54)C3)nc(-c3ccccc3O)nc2c1" , give the reported pIC50.
5.00 to 5.70

For the molecule shown here, "Cc1ccc2c(N3CCN(C(=O)[C@@H](O)Cc4ccccc4)CC3)nc(-c3ccccc3O)nc2c1" , give the reported pIC50.
< 5.00

For the molecule shown here, "Cc1ccc2c(N3CCC[C@@H](NC(=O)OCC(C)C)C3)nc(-c3ccccc3O)nc2c1" , give the reported pIC50.
> 5.70

For the molecule shown here, "Cc1ccc2c(N3CCN(C(=O)O[C@@H]4CCOC4)CC3)nc(-c3ccccc3O)nc2c1" , give the reported pIC50.
5.00 to 5.70

For the molecule shown here, "Cc1ccc2c(N3CCN(C(=O)CCC4CCCC4)CC3)nc(-c3ccccc3O)nc2c1" , give the reported pIC50.
> 5.70

For the molecule shown here, "Cc1ccc2c(N3CC[C@@H](NC(=O)c4cccc(OC(F)(F)F)c4)C3)nc(-c3ccccc3O)nc2c1" , give the reported pIC50.
< 5.00

For the molecule shown here, "Cc1ccc2c(N3CCN(C(=O)[C@H](O)Cc4ccccc4)CC3)nc(-c3ccccc3O)nc2c1" , give the reported pIC50.
< 5.00

----------
For each record, write down the corresponding pIC50.
Biological target: NaV 1.8 channel (Homo sapiens)
Experiment: Activity against NaV 1.8 channel (optical membrane potential assay)
pIC50: −log10 of the molar value.

For the molecule shown here, "CC[C@@H](O)C(=O)NC1CCN(c2nc(-c3ccccc3O)nc3cc(C)ccc23)CC1" , give the reported pIC50.
< 5.00

For the molecule shown here, Cc1ccc2c(N3CCN(C(=O)C(O)CC(C)C)CC3)nc(-c3ccccc3O)nc2c1 (stereo not shown) [Example 270] , give the reported pIC50.
5.00 to 5.70

For the molecule shown here, Cc1ccc2c(N3CCC(C(=O)NCC4CCCO4)CC3)nc(-c3ccccc3O)nc2c1 (stereo not shown) , give the reported pIC50.
< 5.00

For the molecule shown here, "Cc1ccc2c(N3CCN(C(=O)[C@H](O)C(F)(F)F)CC3)nc(-c3ccccc3O)nc2c1" , give the reported pIC50.
5.00 to 5.70

For the molecule shown here, Cc1ccc2c(N3CCN(C(=O)Oc4ccccc4)CC3CO)nc(-c3ccccc3O)nc2c1 (stereo not shown) , give the reported pIC50.
< 5.00

For the molecule shown here, "Cc1ccc2c(N3CC(CNC(=O)OCC(C)C)C3)nc(-c3ccccc3O)nc2c1" , give the reported pIC50.
5.00 to 5.70

For the molecule shown here, "Cc1ccc2c(N3CCC[C@@H](CNC(=O)O[C@@H]4CCOC4)C3)nc(-c3ccccc3O)nc2c1" , give the reported pIC50.
< 5.00

For the molecule shown here, "Cc1ccc2c(N3CC[C@@H](NC(=O)C4CCOCC4)C3)nc(-c3ccccc3O)nc2c1" , give the reported pIC50.
< 5.00

For the molecule shown here, "COCCOC(=O)NCC1CN(c2nc(-c3ccccc3O)nc3cc(C)ccc23)C1" , give the reported pIC50.
5.00 to 5.70

For the molecule shown here, "O=C(NC1CCN(c2nc(-c3c(O)cccc3Cl)nc3ccccc23)CC1)[C@H]1CCCO1" , give the reported pIC50.
< 5.00

For the molecule shown here, "Cc1ccc2c(N3CCC[C@@H](CNC(=O)C4CC4)C3)nc(-c3ccccc3O)nc2c1" , give the reported pIC50.
< 5.00

For the molecule shown here, "Cc1ccc2c(N3CCN(C(=O)[C@H](O)CC(C)C)CC3)nc(-c3ccccc3O)nc2c1" , give the reported pIC50.
5.00 to 5.70

For the molecule shown here, "Cc1ccc2c(N3CC[C@@H](CNC(=O)OCC(C)C)C3)nc(-c3c(O)cccc3F)nc2c1" , give the reported pIC50.
> 5.70

For the molecule shown here, "O=C(NC[C@@H]1CCN(c2nc(-c3ccccc3O)nc3ccc(F)cc23)C1)C1CC1" , give the reported pIC50.
< 5.00

For the molecule shown here, "Cc1ccc2c(N3CC[C@@H](NC(=O)CCN4CCCCC4)C3)nc(-c3ccccc3O)nc2c1" , give the reported pIC50.
< 5.00

For the molecule shown here, "CNCC(=O)N(C)CC(=O)O[C@H](CC(C)C)C(=O)N1CCN(c2nc(-c3ccccc3O)nc3cc(C)ccc23)CC1" , give the reported pIC50.
< 5.00
